Give pIC50 for every item shown.
- assayed-system: PRMT5-MEP50 (Homo sapiens)
- Sequence (O14744 whole entry): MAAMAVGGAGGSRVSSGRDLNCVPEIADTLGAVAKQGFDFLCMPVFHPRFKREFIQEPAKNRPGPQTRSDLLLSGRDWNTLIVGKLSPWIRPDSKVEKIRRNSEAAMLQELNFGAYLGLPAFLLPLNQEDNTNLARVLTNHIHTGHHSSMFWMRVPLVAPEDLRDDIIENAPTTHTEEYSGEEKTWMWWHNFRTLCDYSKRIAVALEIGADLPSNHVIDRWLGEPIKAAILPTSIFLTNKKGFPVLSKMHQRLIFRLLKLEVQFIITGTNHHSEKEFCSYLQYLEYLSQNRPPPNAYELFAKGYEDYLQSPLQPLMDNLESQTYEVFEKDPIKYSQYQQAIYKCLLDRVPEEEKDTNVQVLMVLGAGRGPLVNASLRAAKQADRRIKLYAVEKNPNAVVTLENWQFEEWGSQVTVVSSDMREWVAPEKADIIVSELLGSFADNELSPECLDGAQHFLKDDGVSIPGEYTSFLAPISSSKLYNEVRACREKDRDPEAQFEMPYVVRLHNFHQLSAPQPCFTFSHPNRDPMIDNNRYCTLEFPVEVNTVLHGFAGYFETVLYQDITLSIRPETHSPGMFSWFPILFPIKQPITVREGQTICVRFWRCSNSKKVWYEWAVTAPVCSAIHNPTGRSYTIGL
- Sequence (Q9BQA1 whole entry partner): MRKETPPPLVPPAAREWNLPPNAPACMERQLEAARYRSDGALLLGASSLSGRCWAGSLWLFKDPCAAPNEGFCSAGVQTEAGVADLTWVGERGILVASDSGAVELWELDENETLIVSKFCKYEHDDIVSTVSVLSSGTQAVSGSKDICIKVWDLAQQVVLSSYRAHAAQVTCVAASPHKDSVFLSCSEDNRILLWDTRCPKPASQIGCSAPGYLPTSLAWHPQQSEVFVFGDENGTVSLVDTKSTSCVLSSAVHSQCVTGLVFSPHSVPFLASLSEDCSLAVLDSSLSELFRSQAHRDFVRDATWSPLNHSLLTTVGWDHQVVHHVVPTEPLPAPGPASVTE
- protocol-notes: PRMT5 Assay (PRMT5 biochemical assay)
- study-conditions: read-out: PRMT5 IC50; PRMT5 biochemical assay
- Method: Assays were performed in a 25 μl-volume in 384-well V-bottom polypropylene microplates (Greiner Bio-One, cat. No. 781280) at ambient temperature. Optimized 1× assay buffer was 20 mM Tris-HCl pH 8.0, 1 mM DTT, 0.01% Tween, 0.01%. […] Following two washing cycles with 0.1% Tween-20, the plates were sealed and read on a TopCount (PerkinElmer, Waltham, Mass.) plate-based scintillation counter. […]
pIC50: −log10 of the molar value.

**Query** Endpoint output: pIC50 of CCNc1ccc2ccc(OC[C@H]3O[C@@H](n4cc(-c5ccn(C)n5)c5c(N)ncnc54)[C@@H](F)[C@@H]3O)cc2n1 [I-7] . Value?
**Result** 7.00 to 8.00

**Query** Endpoint output: pIC50 of Cn1cc(-c2cn([C@@H]3C[C@H](CCc4ccc5ccc(N)nc5c4)[C@@H](O)[C@H]3O)c3ncnc(N)c23)cn1 [I-63] . Value?
**Result** > 8.00

**Query** Endpoint output: pIC50 of CNc1ccc2ccc(OC[C@H]3O[C@@H](n4cc(-c5cc(C)n(C)n5)c5c(N)ncnc54)[C@@H](F)[C@@H]3O)cc2n1 [I-147] . Value?
**Result** < 6.00

**Query** Endpoint output: pIC50 of CNc1ccc2ccc(OC[C@H]3O[C@@H](n4cc(-c5ccn(C(C)C)n5)c5c(N)ncnc54)[C@@H](F)[C@@H]3O)cc2n1 [I-2] . Value?
**Result** 6.00 to 7.00

**Query** Endpoint output: pIC50 of CNc1ccc2ccc(OC[C@H]3O[C@@H](n4cc(-c5ccn(C)n5)c5c(N)ncnc54)[C@H](O)[C@@H]3O)cc2n1 [I-6] . Value?
**Result** > 8.00

**Query** Endpoint output: pIC50 of CNc1ccc2ccc(OC[C@H]3O[C@@H](n4cc(-c5ccn(C6COC6)n5)c5c(N)ncnc54)[C@@H](F)[C@@H]3O)cc2n1 [I-144] . Value?
**Result** 6.00 to 7.00

----------
- assayed-system: PRMT5-MEP50 (Homo sapiens)
- protocol-notes: PRMT5 Assay (PRMT5 biochemical assay)
- study-conditions: PRMT5 biochemical assay; read-out: PRMT5 IC50
measured-metric: IC50

**Query** Endpoint output: IC50 of `Cc1cn([C@@H]2C[C@H](CCc3ccc4ccc(N)nc4c3)[C@@H](O)[C@H]2O)c2ncnc(N)c12` . Value?
**Result** < 0.01 µM

**Query** Endpoint output: IC50 of `Nc1nc2ccc(OC[C@H]3O[C@@H](n4cc(Br)c5c(N)ncnc54)[C@@H](F)[C@@H]3O)cc2[nH]1` . Value?
**Result** 0.01 to 0.1 µM

**Query** Endpoint output: IC50 of `CCCNc1ncnc2c1ccn2[C@@H]1C[C@H](CCc2ccc3ccc(N)nc3c2)[C@@H](O)[C@H]1O` . Value?
**Result** < 0.01 µM

**Query** Endpoint output: IC50 of `CNc1ccc2ccc(OC[C@H]3O[C@@H](n4cnc5c(N)ncnc54)[C@H](O)[C@@H]3O)cc2n1` . Value?
**Result** < 0.01 µM

----------
- assayed-system: METTL3/METTL14 (Homo sapiens, UniProt Q86U44)
- Sequence (Q86U44 whole entry, species assumed): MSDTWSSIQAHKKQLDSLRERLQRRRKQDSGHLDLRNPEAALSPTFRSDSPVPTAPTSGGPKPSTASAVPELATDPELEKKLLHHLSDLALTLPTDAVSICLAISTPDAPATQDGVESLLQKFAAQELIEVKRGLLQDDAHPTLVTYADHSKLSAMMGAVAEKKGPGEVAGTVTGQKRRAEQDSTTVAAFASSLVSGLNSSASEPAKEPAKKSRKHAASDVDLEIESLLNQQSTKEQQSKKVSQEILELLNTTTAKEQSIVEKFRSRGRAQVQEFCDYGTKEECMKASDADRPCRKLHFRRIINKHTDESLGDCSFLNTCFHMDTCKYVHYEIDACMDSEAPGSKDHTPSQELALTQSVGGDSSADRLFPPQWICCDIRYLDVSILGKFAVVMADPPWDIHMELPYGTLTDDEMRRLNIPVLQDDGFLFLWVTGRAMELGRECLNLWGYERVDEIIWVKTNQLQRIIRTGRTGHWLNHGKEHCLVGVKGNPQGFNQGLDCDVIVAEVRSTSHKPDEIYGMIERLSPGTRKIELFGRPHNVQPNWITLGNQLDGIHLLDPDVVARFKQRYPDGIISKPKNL
- Sequence (Q9HCE5 whole entry partner, species assumed): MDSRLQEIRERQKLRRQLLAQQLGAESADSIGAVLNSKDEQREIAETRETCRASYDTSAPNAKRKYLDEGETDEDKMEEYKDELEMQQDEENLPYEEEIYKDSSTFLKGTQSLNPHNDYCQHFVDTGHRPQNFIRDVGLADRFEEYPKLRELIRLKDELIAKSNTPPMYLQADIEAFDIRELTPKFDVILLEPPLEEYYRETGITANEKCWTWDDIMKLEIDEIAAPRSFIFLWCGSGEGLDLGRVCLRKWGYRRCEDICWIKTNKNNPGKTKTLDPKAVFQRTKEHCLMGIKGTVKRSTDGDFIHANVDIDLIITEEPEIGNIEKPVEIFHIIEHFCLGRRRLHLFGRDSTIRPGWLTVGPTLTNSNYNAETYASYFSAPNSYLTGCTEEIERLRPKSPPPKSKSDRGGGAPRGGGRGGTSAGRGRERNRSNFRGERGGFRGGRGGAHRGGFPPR
- protocol-notes: METTL3-14 Standard Enzyme Assay (METTL3 biochemical assay)
Give IC50 for every item shown.

**Query** Endpoint output: IC50 of `CNc1nc2cc(OC[C@H]3O[C@@H](n4cc(-c5ccn(C)n5)c5c(N)ncnc54)[C@@H](F)[C@@H]3O)ccc2s1` . Value?
**Result** 0.1 to 1 µM

**Query** Endpoint output: IC50 of `CNc1nc2cc(OC[C@H]3O[C@@H](n4cc(-c5ccn(C)n5)c5c(N)ncnc54)[C@@H](F)[C@@H]3O)ccc2[nH]1` . Value?
**Result** < 0.01 µM

**Query** Endpoint output: IC50 of `Cn1ccc(-c2cn([C@H]3C[C@H](O)[C@@H](CCc4ccc5ccc(N6CCC6)nc5c4)O3)c3ncnc(N)c23)n1` . Value?
**Result** < 0.01 µM

**Query** Endpoint output: IC50 of `Cn1ccc(-c2cn([C@@H]3C[C@H](CCc4ccc5ccc(N6CCC6)nc5c4)[C@@H](O)C3)c3ncnc(N)c23)n1` . Value?
**Result** < 0.01 µM

**Query** Endpoint output: IC50 of `Cc1ccn(-c2cn([C@@H]3O[C@H](COc4ccc5ccc(N6CCC6)nc5c4)[C@@H](O)[C@@H]3F)c3ncnc(N)c23)n1` . Value?
**Result** < 0.01 µM

**Query** Endpoint output: IC50 of `Cc1ccn(-c2cn([C@@H]3O[C@H](COc4ccc5ccc(N6CC(N)C6)nc5c4)[C@@H](O)[C@@H]3F)c3ncnc(N)c23)n1` . Value?
**Result** 0.01 to 0.1 µM

**Query** Endpoint output: IC50 of `Cn1ccc(-c2cn([C@@H]3O[C@H](COc4ccc5ccc(C(=O)N6CCC6)nc5c4)[C@@H](O)[C@@H]3F)c3ncnc(N)c23)n1` . Value?
**Result** > 1 µM

**Query** Endpoint output: IC50 of `Nc1ncnc2c1c(-n1ccc(C(F)(F)F)n1)cn2[C@H]1C[C@H](O)[C@@H](COc2ccc3ccc(N4CCC4)nc3c2)O1` . Value?
**Result** < 0.01 µM

**Query** Endpoint output: IC50 of `Cn1ccc(-c2cn([C@@H]3O[C@H](COc4ccc5ccc(N6CC(N)C6)nc5c4)[C@@H](O)[C@@H]3F)c3ncnc(N)c23)n1` . Value?
**Result** < 0.01 µM

**Query** Endpoint output: IC50 of `CN(CCO)c1ccc2ccc(OC[C@H]3O[C@@H](n4cc(-c5ccn(C)n5)c5c(N)ncnc54)[C@@H](F)[C@@H]3O)cc2n1` . Value?
**Result** < 0.01 µM

**Query** Endpoint output: IC50 of `Cc1ccn(-c2cn([C@@H]3O[C@H](COc4ccc5ccc(N6CC(O)C6)nc5c4)[C@@H](O)[C@@H]3F)c3ncnc(N)c23)n1` . Value?
**Result** < 0.01 µM

**Query** Endpoint output: IC50 of `Cn1ccc(-c2cn([C@@H]3O[C@H](COc4ccc5ccc(N[C@H]6C[C@@H](N)C6)nc5c4)[C@@H](O)[C@@H]3F)c3ncnc(N)c23)n1` . Value?
**Result** 0.01 to 0.1 µM

**Query** Endpoint output: IC50 of `Nc1ncnc2c1c(-n1cccn1)cn2[C@H]1C[C@H](O)[C@@H](COc2ccc3ccc(N4CCC4)nc3c2)O1` . Value?
**Result** < 0.01 µM

----------
- assayed-system: METTL3/METTL14 (Homo sapiens)
- protocol-notes: METTL3-14 Standard Enzyme Assay (METTL3 biochemical assay)
measured-metric: IC50

**Query** Endpoint output: IC50 of `Nc1ncnc2c1c(-c1ncco1)cn2[C@@H]1O[C@H](COc2ccc3ccc(N4CCC4)nc3c2)[C@@H](O)[C@@H]1F` . Value?
**Result** < 10 nM

**Query** Endpoint output: IC50 of `CCc1cc(NC)c2ccc(OC[C@H]3O[C@@H](n4cc(-c5ccn(C)n5)c5c(N)ncnc54)[C@@H](F)[C@@H]3O)cc2n1` . Value?
**Result** < 10 nM

**Query** Endpoint output: IC50 of `Cn1ccc(-c2cn([C@@H]3O[C@H](COc4ccc5ccc(N[C@H]6C[C@H](N)C6)nc5c4)[C@@H](O)[C@@H]3F)c3ncnc(N)c23)n1` . Value?
**Result** 10 to 100 nM

----------
- assayed-system: METTL1/WDR4 (Homo sapiens)
- Sequence (Q9UBP6 whole entry, species assumed): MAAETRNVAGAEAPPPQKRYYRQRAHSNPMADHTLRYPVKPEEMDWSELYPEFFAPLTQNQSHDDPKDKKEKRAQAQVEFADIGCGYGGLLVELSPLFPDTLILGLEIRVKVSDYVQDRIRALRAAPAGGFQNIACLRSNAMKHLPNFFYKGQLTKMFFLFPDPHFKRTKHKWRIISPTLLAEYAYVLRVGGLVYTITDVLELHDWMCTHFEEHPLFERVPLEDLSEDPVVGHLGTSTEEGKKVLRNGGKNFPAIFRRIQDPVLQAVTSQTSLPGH
- Sequence (P57081 whole entry partner, species assumed): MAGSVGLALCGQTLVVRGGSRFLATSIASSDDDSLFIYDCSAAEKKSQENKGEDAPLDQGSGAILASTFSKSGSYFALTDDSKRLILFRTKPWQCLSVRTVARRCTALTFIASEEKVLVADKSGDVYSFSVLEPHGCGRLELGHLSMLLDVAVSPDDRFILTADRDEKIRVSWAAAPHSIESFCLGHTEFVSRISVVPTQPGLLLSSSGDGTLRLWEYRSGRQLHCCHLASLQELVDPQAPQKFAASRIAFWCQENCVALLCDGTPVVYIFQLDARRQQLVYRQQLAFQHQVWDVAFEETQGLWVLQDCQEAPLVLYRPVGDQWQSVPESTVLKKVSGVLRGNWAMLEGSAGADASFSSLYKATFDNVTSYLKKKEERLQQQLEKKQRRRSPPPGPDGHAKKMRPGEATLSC
- protocol-notes: METTL1 Assay (METTL1 biochemical assay)
- study-conditions: read-out: METTL1 IC50; METTL1 biochemical assay
Give IC50 for every item shown.

**Query** Endpoint output: IC50 of Nc1cccc2ccc(CC[C@H]3C[C@@H](n4ccc5c(N)ncnc54)[C@H](O)[C@@H]3O)cc12 [I-110] . Value?
**Result** > 1000 nM

**Query** Endpoint output: IC50 of Nc1ncnc2c1ccn2[C@@H]1C[C@H](CCc2ccc3ccccc3c2)[C@@H](O)[C@H]1O [I-136] . Value?
**Result** > 1000 nM

**Query** Endpoint output: IC50 of Nc1ccc2ccc(OC[C@H]3O[C@@H](n4ccc5c(N)ncnc54)[C@H](O)[C@@H]3O)cc2n1 [I-80] . Value?
**Result** > 1000 nM

**Query** Endpoint output: IC50 of Nc1ccc2ccc(OC[C@H]3O[C@H](n4ccc5c(N)ncnc54)[C@H](O)[C@@H]3O)cc2n1 [I-79] . Value?
**Result** > 1000 nM

**Query** Endpoint output: IC50 of Nc1ncnc2c1ccn2[C@@H]1C[C@H](CCc2ccc3ccc(NCCO)nc3c2)[C@@H](O)[C@H]1O [I-105] . Value?
**Result** > 1000 nM

**Query** Endpoint output: IC50 of Cc1cc2c(N)ncnc2n1[C@@H]1C[C@H](CCc2ccc3ccc(N)nc3c2)[C@@H](O)[C@H]1O [I-65] . Value?
**Result** > 1000 nM

**Query** Endpoint output: IC50 of CNc1ccc2cc(F)c(CC[C@H]3C[C@@H](n4ccc5c(N)ncnc54)[C@H](O)[C@@H]3O)cc2n1 [I-87] . Value?
**Result** > 1000 nM

**Query** Endpoint output: IC50 of Nc1ccc2cc(CC[C@H]3C[C@@H](n4ccc5c(NCCc6ccccc6)ncnc54)[C@H](O)[C@@H]3O)ccc2n1 [I-97] . Value?
**Result** > 1000 nM

**Query** Endpoint output: IC50 of Cn1ccnc1-c1ccc2ccc(OC[C@H]3O[C@@H](n4cc(Br)c5c(N)ncnc54)[C@@H](F)[C@@H]3O)cc2n1 [I-26] . Value?
**Result** > 1000 nM

**Query** Endpoint output: IC50 of Nc1ncnc2c1ccn2[C@@H]1C[C@H](CCc2ccc3cc[nH]c3c2)[C@@H](O)[C@H]1O [I-101] . Value?
**Result** > 1000 nM

**Query** Endpoint output: IC50 of O[C@@H]1[C@@H](CCc2ccc3[nH]ncc3c2)C[C@@H](n2ccc3c(NCCc4ccccc4)ncnc32)[C@@H]1O [I-89] . Value?
**Result** > 1000 nM

**Query** Endpoint output: IC50 of CN(C)c1ccc2ccc(OC[C@H]3O[C@@H](n4ccc5c(N)ncnc54)[C@H](O)[C@@H]3O)cc2n1 [I-78] . Value?
**Result** > 1000 nM

**Query** Endpoint output: IC50 of CNc1ccc2ccc(OC[C@H]3C[C@@H](n4cc(C5CCCC5)c5c(N)ncnc54)C[C@@H]3O)cc2n1 [I-50] . Value?
**Result** > 1000 nM

**Query** Endpoint output: IC50 of Nc1ccc2cc(CC[C@H]3C[C@@H](n4ccc5c(N)ncnc54)[C@H](O)[C@@H]3O)ccc2n1 [I-125] . Value?
**Result** > 1000 nM

**Query** Endpoint output: IC50 of Nc1ccc2ccc(CC[C@H]3C[C@@H](n4ccc5c(N)ncnc54)[C@H](O)[C@@H]3O)cc2c1 [I-108] . Value?
**Result** > 1000 nM

**Query** Endpoint output: IC50 of CNc1ccc2ccc(OC[C@H]3O[C@@H](n4cc(C(F)(F)F)c5c(N)ncnc54)[C@@H](F)[C@@H]3O)cc2n1 [I-38] . Value?
**Result** > 1000 nM

**Query** Endpoint output: IC50 of CCNc1ccc2ccc(OC[C@H]3O[C@@H](n4cc(C5CCCC5)c5c(N)ncnc54)[C@H](O)[C@@H]3O)cc2n1 [I-8] . Value?
**Result** > 1000 nM

**Query** Endpoint output: IC50 of Nc1ncnc2c1ccn2[C@@H]1C[C@H](CCc2ccc3cncnc3c2)[C@@H](O)[C@H]1O [I-127] . Value?
**Result** > 1000 nM

**Query** Endpoint output: IC50 of Nc1ncnc2c1ccn2[C@@H]1C[C@H](CCc2cccnc2)[C@@H](O)[C@H]1O [I-117] . Value?
**Result** > 1000 nM

**Query** Endpoint output: IC50 of CNc1ccc2ccc(OC[C@H]3O[C@@H](n4cc(C)c5c(N)ncnc54)[C@@H](F)[C@@H]3O)cc2n1 [I-44] . Value?
**Result** > 1000 nM

**Query** Endpoint output: IC50 of Cc1cn([C@@H]2O[C@H](COc3ccc4ccc(N)nc4c3)[C@@H](O)[C@H]2O)c2ncnc(N)c12 [I-15] . Value?
**Result** > 1000 nM

**Query** Endpoint output: IC50 of CCCNc1ncnc2c1ccn2[C@@H]1C[C@H](CCc2ccc3ccc(N)nc3c2)[C@@H](O)[C@H]1O [I-102] . Value?
**Result** > 1000 nM

**Query** Endpoint output: IC50 of CNc1ccc2ccc(OC[C@H]3O[C@@H](n4cc(CC5CC5)c5c(N)ncnc54)[C@H](O)[C@@H]3O)cc2n1 [I-142] . Value?
**Result** > 1000 nM

**Query** Endpoint output: IC50 of COc1cccc(CC[C@H]2C[C@@H](n3ccc4c(N)ncnc43)[C@H](O)[C@@H]2O)n1 [I-114] . Value?
**Result** > 1000 nM

**Query** Endpoint output: IC50 of Nc1ncnc2c1ccn2[C@@H]1C[C@H](CCc2ccc3cccnc3n2)[C@@H](O)[C@H]1O [I-128] . Value?
**Result** > 1000 nM

**Query** Endpoint output: IC50 of Nc1ncnc2c1ccn2[C@@H]1C[C@H](CCc2ccc3[nH]cnc3c2)[C@@H](O)[C@H]1O [I-88] . Value?
**Result** > 1000 nM

**Query** Endpoint output: IC50 of Nc1ncnc2c1ccn2[C@@H]1C[C@H](CCc2ccc3c(OCC4CC4)ccnc3c2)[C@@H](O)[C@H]1O [I-85] . Value?
**Result** > 1000 nM

**Query** Endpoint output: IC50 of CNc1ccc2ccc(OC[C@H]3O[C@@H](n4cc(C)c5c(N)ncnc54)[C@H](O)[C@@H]3O)cc2n1 [I-22] . Value?
**Result** > 1000 nM

**Query** Endpoint output: IC50 of Nc1ncnc2c1ccn2[C@@H]1C[C@H](CCc2ccc3nccnc3c2)[C@@H](O)[C@H]1O [I-130] . Value?
**Result** > 1000 nM
